target: Phospho-EGFR in H1975 cell line (Homo sapiens, UniProt P00533, L858R/T790M); construct: H1975 cell line was obtained from American Type Culture Collection; assay: HTRF Phospo EGFR Assay (Cellular); conditions: H1975 cells; 6 hours compound incubation in starving medium; HTRF anti-Phospho-EGFR readout
Sequence (P00533 25-1210 T790M/L858R): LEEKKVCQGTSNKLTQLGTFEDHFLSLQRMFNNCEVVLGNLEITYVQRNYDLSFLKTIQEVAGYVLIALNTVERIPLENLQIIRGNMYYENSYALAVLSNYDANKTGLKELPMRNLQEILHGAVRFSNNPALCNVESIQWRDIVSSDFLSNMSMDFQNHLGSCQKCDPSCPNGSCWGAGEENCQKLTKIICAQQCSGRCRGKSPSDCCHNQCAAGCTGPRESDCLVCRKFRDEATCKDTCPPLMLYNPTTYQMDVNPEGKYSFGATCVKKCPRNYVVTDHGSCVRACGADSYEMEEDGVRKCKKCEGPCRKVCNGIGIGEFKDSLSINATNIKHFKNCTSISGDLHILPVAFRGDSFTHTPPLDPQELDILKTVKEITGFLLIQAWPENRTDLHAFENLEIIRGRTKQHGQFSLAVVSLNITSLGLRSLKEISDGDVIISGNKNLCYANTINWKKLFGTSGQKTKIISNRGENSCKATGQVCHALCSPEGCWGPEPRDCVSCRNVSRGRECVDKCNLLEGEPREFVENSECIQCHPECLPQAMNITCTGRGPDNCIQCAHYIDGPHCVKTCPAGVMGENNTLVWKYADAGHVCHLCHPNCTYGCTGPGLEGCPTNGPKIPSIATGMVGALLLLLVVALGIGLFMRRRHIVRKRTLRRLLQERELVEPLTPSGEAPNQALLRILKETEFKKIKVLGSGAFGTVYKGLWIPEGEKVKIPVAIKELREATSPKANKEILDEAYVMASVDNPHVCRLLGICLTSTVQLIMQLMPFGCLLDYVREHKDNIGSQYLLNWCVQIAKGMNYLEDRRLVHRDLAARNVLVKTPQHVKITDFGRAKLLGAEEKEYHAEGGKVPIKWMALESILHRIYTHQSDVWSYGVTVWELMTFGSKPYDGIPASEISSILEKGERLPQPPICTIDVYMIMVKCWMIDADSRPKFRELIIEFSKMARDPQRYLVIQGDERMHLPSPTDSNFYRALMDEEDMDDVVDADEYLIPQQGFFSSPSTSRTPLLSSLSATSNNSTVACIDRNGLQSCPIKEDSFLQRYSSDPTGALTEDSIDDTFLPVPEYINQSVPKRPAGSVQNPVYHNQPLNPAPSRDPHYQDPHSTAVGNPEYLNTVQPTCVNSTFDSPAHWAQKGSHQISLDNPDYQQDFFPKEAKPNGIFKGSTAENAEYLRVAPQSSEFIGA
pIC50: −log10 of the molar value.
RESULT TYPE: pIC50

Nc1ccc(C#Cc2ccc3c(c2)C(=O)N(C(C(=O)Nc2ccccn2)c2cc(F)ccc2O)C3)cn1 (racemic); 8.40
Nc1ccc(C#Cc2ccc3c(c2)C(=O)N(C(C(=O)Nc2nccs2)c2cc(Cl)ccc2O)C3)cn1 (racemic); 8.40
O=C(Nc1nccs1)C(c1cc(F)ccc1O)N1Cc2ccc(C#Cc3ccc(CN4CCOCC4)cc3)cc2C1=O (racemic); 8.30

A: O=C(Nc1nccs1)C(c1cc(F)ccc1O)N1Cc2ccc(C#Cc3ccc(CN4CCC(O)CC4)cc3)cc2C1=O (racemic)
B: CNC(=O)c1ccc(C#Cc2ccc3c(c2)C(=O)N(C(C(=O)Nc2nccs2)c2ccccc2)C3)cn1 (racemic)
Higher pIC50: A or B ? Write down the label of the entry you select.
A
(A: 8.15, B: 7.80)

----------
biological target: Phospho-EGFR in H1975 cell line (Homo sapiens, UniProt P00533, L858R/T790M); construct: H1975 cell line was obtained from American Type Culture Collection; experiment: HTRF Phospo EGFR Assay (Cellular); conditions: H1975 cells; 6 hours compound incubation in starving medium; HTRF anti-Phospho-EGFR readout
RESULT TYPE: IC50 (nM)

A: Cc1c(C#Cc2ccc(N)nc2)ccc2c1C(=O)N(C(C(=O)Nc1nccs1)c1cc(F)ccc1O)C2 (racemic)
B: O=C(Nc1nccs1)C(c1cc(F)ccc1O)N1Cc2ccc(C#Cc3cccnc3)cc2C1=O (racemic)
C: O=C(Nc1nccs1)C(c1cc(F)ccc1O)N1Cc2ccc(C#Cc3cccnc3)c(F)c2C1=O (racemic)
D: CCN1CCN(Cc2ccc(C#Cc3ccc4c(c3)C(=O)N(C(C(=O)Nc3nccs3)c3ccccc3)C4)cc2)CC1 (racemic)
Arrange by IC50, high to low. // format: requested-order list of labels
D, A, C, B
(D: 69 nM, A: 3 nM, C: 2 nM, B: 1 nM)

----------
biological target: Phospho-EGFR in H1975 cell line (Homo sapiens, UniProt P00533, L858R/T790M); construct: H1975 cell line was obtained from American Type Culture Collection; experiment: HTRF Phospo EGFR Assay (Cellular); conditions: H1975 cells; 6 hours compound incubation in starving medium; HTRF anti-Phospho-EGFR readout
RESULT TYPE: IC50 (nM)

Sample answers from the record:
O=C(Nc1nccs1)C(c1cc(F)ccc1O)N1Cc2ccc(C#Cc3ccc(CN4CCNCC4)cc3)cc2C1=O (racemic); 8
CC(=O)Nc1ccc(C#Cc2ccc3c(c2)C(=O)N(C(C(=O)Nc2nccs2)c2ccccc2)C3)cn1 (racemic); 10
Nc1ccc(C#Cc2ccc3c(c2)C(=O)N(C(C(=O)Nc2nccs2)c2cc(F)ccc2F)C3)cn1 (racemic); 7
CCN1CCN(Cc2ccc(C#Cc3ccc4c(c3)C(=O)N(C(C(=O)Nc3nccs3)c3cc(F)ccc3O)C4)cc2)CC1 (racemic); 7

a: O=C(Nc1nccs1)C(c1cc(F)ccc1O)N1Cc2ccc(C#Cc3ccccc3)cc2C1=O (racemic)
b: Nc1ccc(C#Cc2ccc3c(c2)C(=O)N(C(C(=O)Nc2nccs2)c2cccc(F)c2)C3)cn1 (racemic)
Which of these two has the smaller recorded IC50: a or b ? Write down the label of the entry you select.
a
